# System: Rhodotorula mucilaginosa
# ASSAY OVERVIEW: Antifungal activity against Rhodotorula pilimanae by CLSI […] protocol based method
# Format: functional
Kindly supply the reported MIC values for the records listed here.
One number for each entry, in µg/mL.

LINE NOTATION	MEASUREMENT NAME	RESULT UNIT	MEASURED VALUE
O=C1c2ccccc2C(=O)c2c1nnn2CCCP(=O)([O-])[O-].[K+].[K+]	MIC	µg/mL	32
CCOP(=O)(CCCCn1nnc2c1C(=O)c1ccccc1C2=O)OCC	MIC	µg/mL	128
O=C1c2ccccc2C(=O)c2c1nnn2CCP(=O)([O-])[O-].[K+].[K+]	MIC	µg/mL	128
CCCCCCCCS(=O)(=O)OC[C@H]1O[C@H](O[C@@H]2[C@@H](O)[C@H](O[C@H]3O[C@H](CN)[C@@H](O)[C@H](O)[C@H]3O)[C@@H](N)C[C@H]2N)[C@H](O)[C@@H](N)[C@@H]1O	MIC	µg/mL	4
C[C@@H](c1ncncc1F)[C@](O)(Cn1cncn1)c1ccc(F)cc1F	MIC	µg/mL	8

# input Notebook entry, Rhodotorula mucilaginosa assay: MIC of `O=C1c2ccccc2C(=O)c2c1nnn2CCCCCCP(=O)([O-])[O-].[K+].[K+]` = ?
# output 128

----------
# Test system: Candida albicans
# ASSAY OVERVIEW: Antifungal activity against Candida albicans MYA2876 by CLSI […] protocol based method
# Type: functional
MEASUREMENT NAME: MIC

LINE NOTATION	SYSTEM UNDER TEST	MEASURED VALUE
CCCCCCCCS(=O)(=O)OC[C@H]1O[C@H](O[C@@H]2[C@@H](O)[C@H](O[C@H]3O[C@H](CN)[C@@H](O)[C@H](O)[C@H]3O)[C@@H](N)C[C@H]2N)[C@H](O)[C@@H](N)[C@@H]1O	Candida albicans	64 µg/mL
CCOP(=O)(CCCCCCn1nnc2c1C(=O)c1ccccc1C2=O)OCC	Candida albicans	> 128 µg/mL
O=C1c2ccccc2C(=O)c2c1nnn2CCP(=O)([O-])[O-].[K+].[K+]	Candida albicans	> 128 µg/mL

Here is another molecule to look at.
# input Notebook entry, Candida albicans assay: MIC of `O=C1c2ccccc2C(=O)c2c1nnn2CCCCCCCCP(=O)([O-])[O-].[K+].[K+]` = ?
# output 8 to 16 µg/mL

----------
# Tested on: Fusarium graminearum
# ASSAY OVERVIEW: Antifungal activity against Fusarium graminearum by CLSI […] protocol based method
# Assay type: functional
Kindly supply the reported MIC values for the records listed here.
One number for each entry, in µg/mL.

> print(dat)
                              line.notation  result.unit  measured.value
1  CCOP(=O)(CCCCCCCCCCn1nnc2c1C(=O)c1ccccc1C2=O)OCC        µg/mL             0.5

# batch size: 2; output MIC per entry
1. O=C1c2ccccc2C(=O)c2c1nnn2CCCP(=O)([O-])[O-].[K+].[K+]
2. CCOP(=O)(CCn1nnc2c1C(=O)c1ccccc1C2=O)OCC

# output
[32, 16]

----------
# System: Fusarium graminearum
# ASSAY OVERVIEW: Antifungal activity against Fusarium graminearum by CLSI […] protocol based method
# Type: functional
MEASUREMENT NAME: MIC (µg/mL)
Give bare numbers, in µg/mL.

Worked cases, MIC given:
COMPOUND	SYSTEM UNDER TEST	MEASUREMENT NAME	MEASURED VALUE
CCOP(=O)(CCCn1nnc2c1C(=O)c1ccccc1C2=O)OCC	Fusarium graminearum	MIC	16
C[C@@H](c1ncncc1F)[C@](O)(Cn1cncn1)c1ccc(F)cc1F [VORICONAZOLE]	Fusarium graminearum	MIC	32

# batch size: 2; output MIC per entry
1. O=C1c2ccccc2C(=O)c2c1nnn2CCCCCCP(=O)([O-])[O-].[K+].[K+]
2. CCCCCCCCS(=O)(=O)OC[C@H]1O[C@H](O[C@@H]2[C@@H](O)[C@H](O[C@H]3O[C@H](CN)[C@@H](O)[C@H](O)[C@H]3O)[C@@H](N)C[C@H]2N)[C@H](O)[C@@H](N)[C@@H]1O

# output
1. 64
2. 32
